system: human renin (Homo sapiens, UniProt P00797)
Construct: A human plasma pool is used as the source of both the substrate (angiotensinogen) and the enzyme (renin); from tissue; host or cells: human plasma pool
Sequence (P00797 67-406): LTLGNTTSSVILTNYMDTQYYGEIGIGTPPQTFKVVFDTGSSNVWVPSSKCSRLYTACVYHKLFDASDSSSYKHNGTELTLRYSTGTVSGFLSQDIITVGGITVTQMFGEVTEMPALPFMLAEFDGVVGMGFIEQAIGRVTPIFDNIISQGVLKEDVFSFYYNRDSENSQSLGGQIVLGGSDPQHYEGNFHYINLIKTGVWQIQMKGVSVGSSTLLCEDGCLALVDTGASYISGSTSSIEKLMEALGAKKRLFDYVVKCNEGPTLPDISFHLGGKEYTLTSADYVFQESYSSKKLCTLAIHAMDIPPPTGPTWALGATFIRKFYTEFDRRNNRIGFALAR
experimental-protocol: Plasma renin assay (angiotensin I generated in human plasma pool, RIA)
Assay type: biochemical
test-conditions: human plasma pool as source of renin and angiotensinogen; pH 6.0; 2 h at 37°; 1% dimethylsulfoxide
readout-type: IC50 (nM)

Answered examples (3):
Query :: Suppose we examine the molecule `CC(C)C[C@H](O)[C@H](O)[C@H](CC1CCCCC1)NC(=O)[C@H](CC1CC1)[C@H](O)C[C@@H](O)Cc1ccccc1` ; what IC50 value has been reported?
Result :: 1000

Query :: Suppose we examine the molecule CC(C)C[C@H](O)[C@H](O)[C@H](CC1CCCCC1)NC(=O)[C@H](CC1CC1)C[C@@H](O)[C@H](O)Cc1ccccc1 [Corresponding (2R,4R,5R)-isomer of title compound of example 2] ; what IC50 value has been reported?
Result :: 38

Query :: Suppose we examine the molecule `CC(C)C[C@H](O)[C@H](O)[C@H](CC1CCCCC1)NC(=O)[C@H](CC1CC1)[C@@H](O)C[C@H](O)Cc1ccccc1` ; what IC50 value has been reported?
Result :: 21

I = CC(C)C[C@H](O)[C@H](O)[C@H](CC1CCCCC1)NC(=O)[C@H](CC1CC1)C[C@H](O)[C@H](O)Cc1ccccc1
II = CC(C)C[C@H](O)[C@H](O)[C@H](CC1CCCCC1)NC(=O)[C@H](CC1CC1)[C@H](O)C[C@H](O)Cc1ccccc1
III = CC(C)C[C@H](O)[C@H](O)[C@H](CC1CCCCC1)NC(=O)[C@H](CC1CC1)[C@@H](O)C[C@@H](O)Cc1ccccc1
IV = CC(C)C[C@H](O)[C@H](O)[C@H](CC1CCCCC1)NC(=O)[C@H](CC1CC1)C[C@@H](O)[C@@H](O)Cc1ccccc1
V = CC(C)C[C@H](O)[C@H](O)[C@H](CC1CCCCC1)NC(=O)[C@H](CC1CC1)C[C@H](O)[C@@H](O)Cc1ccccc1
Query :: # rank_down: sort by IC50, max first Returns: the labels listed in the requested order.
Result :: II, III, I, IV, V
